- targetUnderTest: N-terminally GST-tagged human full length recombinant Mps-1 kinase (Homo sapiens)
- Construct: N-terminally GST-tagged human full length recombinant Mps-1 kinase; purchased Invitrogen, Karslruhe, Germany PV4071
- Sequence (P33981 whole entry): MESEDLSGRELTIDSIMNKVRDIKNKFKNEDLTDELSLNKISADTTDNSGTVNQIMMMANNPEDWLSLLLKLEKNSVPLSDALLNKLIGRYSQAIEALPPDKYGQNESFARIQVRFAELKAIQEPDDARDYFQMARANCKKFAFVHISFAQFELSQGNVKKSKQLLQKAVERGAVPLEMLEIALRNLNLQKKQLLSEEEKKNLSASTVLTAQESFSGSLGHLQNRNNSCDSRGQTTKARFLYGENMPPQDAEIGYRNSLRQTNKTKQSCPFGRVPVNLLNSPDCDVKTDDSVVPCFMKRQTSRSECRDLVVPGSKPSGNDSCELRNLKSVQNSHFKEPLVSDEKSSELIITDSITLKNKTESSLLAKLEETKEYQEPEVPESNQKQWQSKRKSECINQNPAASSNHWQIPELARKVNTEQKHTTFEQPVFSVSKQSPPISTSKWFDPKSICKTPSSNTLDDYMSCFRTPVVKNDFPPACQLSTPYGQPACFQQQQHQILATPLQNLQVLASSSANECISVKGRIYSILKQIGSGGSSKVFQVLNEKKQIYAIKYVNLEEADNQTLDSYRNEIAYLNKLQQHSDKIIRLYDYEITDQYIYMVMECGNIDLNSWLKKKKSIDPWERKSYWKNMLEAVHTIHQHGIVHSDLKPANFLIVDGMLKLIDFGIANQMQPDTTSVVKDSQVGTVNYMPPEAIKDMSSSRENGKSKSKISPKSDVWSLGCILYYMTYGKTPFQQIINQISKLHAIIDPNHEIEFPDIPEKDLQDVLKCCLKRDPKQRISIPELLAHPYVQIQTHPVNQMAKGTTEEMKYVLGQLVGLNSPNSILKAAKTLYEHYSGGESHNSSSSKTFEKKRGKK
- assayOverview: Mps-1 kinase assay (TR-FRET)
- Type: biochemical
- conditionLabel: Mps1 IC50 [nM], 10 μM ATP, 1 μM peptide substrate, 60 min at 22° C.
readoutName: IC50 (nM)

Ask | Value lookup for IC50; key = CCNC(=O)c1ccc(-c2cnc3c(NCCC(F)(F)F)cc(Oc4ccc(O)cc4F)nn23)cc1C
Reply | 0.6

Ask | Given the compound Cc1ccccc1Oc1cc(NCCC(F)(F)F)c2ncc(-c3ccc(C(=O)NC4CC4)c(C)c3)n2n1 , what is its reported IC50?
Reply | 0.3

Ask | Using the record for Cc1cc(-c2cnc3c(NCC4CC[S+]([O-])CC4)cc(Oc4ccc(Cl)cc4)nn23)ccc1C(=O)NC1CC1 (mixture of isomers) [Example 294B] , report its IC50.
Reply | 0.2

P: Cc1cc(-c2cnc3c(NCC(C)(C)O)cc(Oc4ccc(N5CCN(C(=O)OC(C)(C)C)CC5)cc4)nn23)ccc1C(=O)NC1CC1
Q: COc1ccc(Nc2cc(NCC(C)(C)O)c3ncc(-c4ccc(C(=O)NC5CC5)c(C)c4)n3n2)cc1
R: COc1ccc(Nc2cc(NCC(C)(C)O)c3ncc(-c4ccc(C(=O)NC5CC5)c(C)c4)n3n2)cn1
S: Cc1cc(-c2cnc3c(NCCC(F)(F)F)cc(Oc4cccc(F)c4)nn23)ccc1C(=O)NC1(C)CC1
Ask | Parameters: sort_field (IC50), sort_dir (desc). Please list the labels in the order you were asked to rank them.
Reply | P, R, Q, S
(P: 70.6 nM, R: 1.1 nM, Q: 0.4 nM, S: 0.2 nM)
